# TESTED ON: vanilloid receptor (Rattus norvegicus, UniProt O35433)
# Construct: DRG nerve cells from the primary culture of 2 days were equilibrated; endogenous in cells
# Sequence (O35433 whole entry): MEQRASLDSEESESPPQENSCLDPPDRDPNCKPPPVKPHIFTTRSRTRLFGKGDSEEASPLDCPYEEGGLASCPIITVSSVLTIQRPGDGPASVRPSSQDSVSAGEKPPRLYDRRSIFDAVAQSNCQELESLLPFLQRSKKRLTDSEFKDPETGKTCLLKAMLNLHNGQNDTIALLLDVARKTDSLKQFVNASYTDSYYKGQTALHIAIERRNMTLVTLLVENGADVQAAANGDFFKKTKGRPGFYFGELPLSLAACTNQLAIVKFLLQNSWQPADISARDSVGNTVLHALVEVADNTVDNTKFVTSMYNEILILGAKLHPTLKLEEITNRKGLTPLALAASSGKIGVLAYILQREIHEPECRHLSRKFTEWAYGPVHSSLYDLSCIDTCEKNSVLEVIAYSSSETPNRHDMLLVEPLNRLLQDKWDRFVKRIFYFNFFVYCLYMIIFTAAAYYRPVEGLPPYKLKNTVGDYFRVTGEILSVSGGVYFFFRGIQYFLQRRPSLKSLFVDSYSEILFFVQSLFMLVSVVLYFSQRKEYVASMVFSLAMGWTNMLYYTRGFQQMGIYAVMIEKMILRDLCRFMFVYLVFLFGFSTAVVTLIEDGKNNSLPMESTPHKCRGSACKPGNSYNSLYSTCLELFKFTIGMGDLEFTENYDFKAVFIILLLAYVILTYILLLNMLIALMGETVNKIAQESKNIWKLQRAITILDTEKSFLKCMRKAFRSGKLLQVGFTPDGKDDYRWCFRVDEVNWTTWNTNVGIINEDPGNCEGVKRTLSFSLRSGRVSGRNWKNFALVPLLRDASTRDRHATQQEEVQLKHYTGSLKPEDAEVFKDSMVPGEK
# PROCEDURE TEXT: 45Ca influx test in primary cultured DRG neurons (capsaicin-induced calcium uptake)
# SETUP CONDITIONS: neonatal SD rat DRG neurons; capsaicin 0.5 μM; 45Ca 10 μCi/ml; 10 min at room temperature
MEASURED ATTRIBUTE: IC50 (nM)

CC(C)(C)c1ccc(CNC(=O)NCc2cc(F)c(NS(C)(=O)=O)c(I)c2)cc1: 290
CC(C)(C)c1ccc(CNC(=O)NCc2ccc(NS(C)(=O)=O)c([N+](=O)[O-])c2)cc1: 240
C/C(=C\C(=O)NCc1ccc(NS(C)(=O)=O)c(F)c1)c1ccc(C(C)(C)C)cc1: 150
CCc1cc(CNC(=O)NCc2ccc(C(C)(C)C)cc2)c(Cl)cc1NS(C)(=O)=O: 290
C[C@@H](NC(=O)C#Cc1ccc(C(C)(C)C)cc1)c1ccc(NS(C)(=O)=O)cc1: 100
